- MEASURED_ON: Histone acetyltransferase RTT109 (Candida albicans (strain SC5314 / ATCC MYA-2876)) (UniProt Q5AAJ8)
- Sequence (Q5AAJ8 whole entry, looked up): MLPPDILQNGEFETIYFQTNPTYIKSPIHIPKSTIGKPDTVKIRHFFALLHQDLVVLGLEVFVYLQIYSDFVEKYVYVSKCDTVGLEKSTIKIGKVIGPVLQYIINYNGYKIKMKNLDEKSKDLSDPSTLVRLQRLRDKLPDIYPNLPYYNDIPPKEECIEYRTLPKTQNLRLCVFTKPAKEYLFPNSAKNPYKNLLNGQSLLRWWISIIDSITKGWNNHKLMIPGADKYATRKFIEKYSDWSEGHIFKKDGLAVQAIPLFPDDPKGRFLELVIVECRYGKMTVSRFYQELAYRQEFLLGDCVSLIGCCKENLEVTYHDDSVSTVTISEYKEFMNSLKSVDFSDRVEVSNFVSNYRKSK
- PROTOCOL_DETAILS: inhibitors of C. albicans Rtt109/Vps75 HAT, primary screen, biochemical, ThioGlo CoA-SH fluorescence, plate reader (AID 540336)
- EXPERIMENTAL_CONTEXT: purified Rtt109/Vps75, ThioGlo CoA-SH fluorescence, 4 h; at 34.9 µM
In all, about 330,000 compounds went through this assay and about 520 (0.16%) were called active.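 Rule for the calls: active = inhibition of at least 50% in every replicate; inconclusive = best replicate reaches 50% inhibition but some replicates fall short; inactive = the rest.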 The list comes from a sample in which actives are over-represented; it also holds close analogues and randomly drawn compounds.
Pick from 1.0 = active, 0.0 = inactive when you respond.

>  <COMPOUND>
CN(C)/C=C(/C(=O)c1ccccc1)S(=O)(=O)c1ccc(Cl)cc1

>  <CLASSIFICATION>
0.0

$$$$
>  <COMPOUND>
O=C(NCC(=O)N1CCCC(C(F)(F)F)C1)c1ccccc1F (stereo unspecified)

>  <CLASSIFICATION>
0.0

$$$$
>  <COMPOUND>
CC(=O)Nc1cccc(-c2csc(Nc3cccc(C)n3)n2)c1

>  <CLASSIFICATION>
1.0

$$$$
>  <COMPOUND>
O=C(O)c1ccc(NN=CC2=C(N3CCOCC3)/C(=C/c3ccccc3)CC2)cc1

>  <CLASSIFICATION>
0.0

$$$$
>  <COMPOUND>
CN(CCc1ccccc1)C(=O)c1cccc(NC(=O)Cc2cccc(NC(=O)C3CCCN(C(=O)CCc4ccccc4)C3)c2)c1 (stereo unspecified)

>  <CLASSIFICATION>
0.0

$$$$

API: the following record is the query input.
For `CC(=O)Oc1ccc(N(C(C)=O)S(=O)(=O)c2ccc3ccccc3c2)cc1Br` , what call appears in the results of this test?
0.0

---

- MEASURED_ON: Histone acetyltransferase RTT109 (Candida albicans (strain SC5314 / ATCC MYA-2876))
- PROTOCOL_DETAILS: inhibitors of C. albicans Rtt109/Vps75 HAT, primary screen, biochemical, ThioGlo CoA-SH fluorescence, plate reader (AID 540336)
- EXPERIMENTAL_CONTEXT: purified Rtt109/Vps75, ThioGlo CoA-SH fluorescence, 4 h; at 34.9 µM; hits give high values
The campaign covered roughly 330,000 compounds. About 520 (0.16%) were called active. Only a selection was taken, and actives are over-represented in it overall.
Record form. Attribute: inhibition. Fill in for each entry.
Numbers only, in %.

>  <MOLECULE>
COc1ccc(N(C(=O)c2cccnc2)S(=O)(=O)c2ccc(OC)c(OC)c2)cc1

>  <PROPERTY_LABEL>
inhibition

>  <NUMERIC_VALUE>
-7.79

$$$$
>  <MOLECULE>
CN(C)CCNC(=O)c1ccc(Cl)c2cc3ccccc3nc12

>  <PROPERTY_LABEL>
inhibition

>  <NUMERIC_VALUE>
0.27

$$$$

Given the entry C=CCNC(=O)C1CC=CCC1C(=O)O (stereo not drawn) , report its measured inhibition.
-1.04

---

Record form. Attribute: inhibition. Fill in for each entry.
- MEASURED_ON: Histone acetyltransferase RTT109 (Candida albicans (strain SC5314 / ATCC MYA-2876)) (UniProt Q5AAJ8)
- PROTOCOL_DETAILS: inhibitors of C. albicans Rtt109/Vps75 HAT, primary screen, biochemical, ThioGlo CoA-SH fluorescence, plate reader (AID 540336)
- EXPERIMENTAL_CONTEXT: purified Rtt109/Vps75, ThioGlo CoA-SH fluorescence, 4 h; at 34.9 µM; hits give high values
The whole screen tested about 330,000 compounds, of which about 520 (0.16%) were called active. What follows is part of a selection rich in actives, with near analogues and random picks from the rest.
Give bare numbers, in %.

Use the examples below as a reference point.
>  <MOLECULE>
Cc1c(CCO)sc[n+]1CC(=O)OC12CC3CC(CC(C3)C1)C2

>  <UNIT_OF_MEASURE>
%

>  <inhibition>
2.54

$$$$
>  <MOLECULE>
Cn1cc(C2OC(=O)c3ccccc32)c2ccccc21 (stereo not drawn)

>  <UNIT_OF_MEASURE>
%

>  <inhibition>
0.802

$$$$
>  <MOLECULE>
CC1=NN(/C(=N\c2nnc(C)s2)Nc2ccccc2)[C@H](c2ccc(C)cc2)S1

>  <UNIT_OF_MEASURE>
%

>  <inhibition>
-10.9

$$$$
>  <MOLECULE>
O=C(OCCOc1ccccc1Cl)c1cc(S(=O)(=O)N2CCCCC2)ccc1N1CCOCC1

>  <UNIT_OF_MEASURE>
%

>  <inhibition>
2.25

$$$$
>  <MOLECULE>
Cc1ccc(C(=O)CNc2ccc(F)cc2)cc1

>  <UNIT_OF_MEASURE>
%

>  <inhibition>
-2.53

$$$$

Hey, can you go through the list below and give me inhibition for every item?
1. O=C(Nc1ccccc1Cl)/C(Cl)=C(\Cl)S(=O)c1ccccc1 (stereo not drawn)
2. CC1(C)CC(CCC(=O)Nc2ccccc2Cl)C(=O)O1 (stereo not drawn)
3. CCn1c(SCC(=O)Nc2ccc(Br)cc2)nc2sc3c(c2c1=O)CCN(C)C3

1. 136
2. -18.6
3. 51.8

---

Record form. Attribute: inhibition. Fill in for each entry.
- MEASURED_ON: Histone acetyltransferase RTT109 (Candida albicans (strain SC5314 / ATCC MYA-2876)) (UniProt Q5AAJ8)
- PROTOCOL_DETAILS: inhibitors of C. albicans Rtt109/Vps75 HAT, primary screen, biochemical, ThioGlo CoA-SH fluorescence, plate reader (AID 540336)
- EXPERIMENTAL_CONTEXT: purified Rtt109/Vps75, ThioGlo CoA-SH fluorescence, 4 h; at 34.9 µM; hits give high values
The whole screen tested about 330,000 compounds, of which about 520 (0.16%) were called active. The sample holds actives, similar compounds and a random draw of the others, so the mix is not that of the screen.
One number for each entry, in %.

>  <COMPOUND>
CCOC(=O)Cc1csc(NC(=O)CSc2nc(C)cc(=O)[nH]2)n1

>  <inhibition / %>
66.2

$$$$
>  <COMPOUND>
O=C(O)c1ccc([N+](=O)[O-])cc1Sc1ccsc1

>  <inhibition / %>
-13.5

$$$$

Hey, can you go through the list below and give me inhibition for every item?
1. C=CCn1c(=O)n(C)c2c(=O)n(C)c(=O)n(C)c21
2. CCOC(=O)CCC(NC(=O)c1ccc(CNc2nc3cc(C(F)(F)F)ccc3nc2C(=O)OCC)cc1)C(=O)OCC (stereo not given)
3. CNc1nc(=O)n(C2CCCO2)cc1C (stereo not given)
4. O=C(CNC(=O)c1ccccc1F)OCC(=O)c1c[nH]c2ccccc12
5. O=C(Nc1ccc(S(=O)(=O)N2CCOCC2)cc1)C1CCN(S(=O)(=O)c2ccc(Cl)cc2)CC1

1.91
9.24
12.5
3.64
1.41

Hey, can you go through the list below and give me inhibition for every item?
1. OCC1(CO)CC2(C1)CC(CO)(CO)C2
2. Cc1ccc2c(O)c(Cc3ccccc3)c(=O)[nH]c2n1
3. O=C(c1ccc2c(c1)C(=O)N(Cc1ccncc1)C2=O)N1CCN(S(=O)(=O)c2ccc(OC(F)(F)F)cc2)CC1
4. CC(C)(C)OC(=O)N1CCC(C(=O)Nc2cccc(C(=O)NCCc3ccccc3)c2)CC1
5. COc1cc2c(cc1OC)C(C(C)C)=NC(C)(C)C2
6. O=C(O)C(=Cc1ccccc1[N+](=O)[O-])c1ccccc1

1: -0.212; 2: 3.15; 3: 5.03; 4: 15.4; 5: -260; 6: -1.92

Hey, can you go through the list below and give me inhibition for every item?
1. CCCSc1nc2sc3c(c2c(=O)n1-c1ccc(OC)cc1)CCN(C)C3
2. COc1cc2c(cc1O)C(SC)=NC(C)(C)C2
3. COc1cc2c(cc1OC)C(Nc1ccc(S(N)(=O)=O)cc1)=NC(C)(C)C2
4. CCOC(=O)Cc1csc(NC(=O)CSc2ccc(Br)cc2)n1

1: 0.409; 2: 85; 3: -0.292; 4: 2.14

Hey, can you go through the list below and give me inhibition for every item?
1. Oc1cccc(CCc2ccccn2)c1
2. COc1ccc(CCNC(=O)c2ccc(NC(=O)CC3SC(N4CCCCC4)=NC3=O)cc2)cc1OC (stereo not given)

1: -14.8; 2: 9.04

Hey, can you go through the list below and give me inhibition for every item?
1. COc1ccc(S(=O)(=O)NC(C)C(=O)Nc2cccc([N+](=O)[O-])c2)cc1 (stereo not given)
2. O=[N+]([O-])c1cc2ccccc2nc1-c1ccccc1
3. CC(=O)Nc1ccc(NC(=O)COc2ccccc2C(=O)Nc2cccc(Cl)c2Cl)cc1
4. CCOc1ccc(-n2c(SCC(=O)OC)nc3sc4c(c3c2=O)CCN(C)C4)cc1
5. O=C(Nc1ccccc1Cl)O/N=C(/c1ccccc1)c1ccccn1
6. COc1cccc(CNC(=O)CCCC(=O)Nc2cccc([N+](=O)[O-])c2)c1

-0.177
2.85
-5.99
-6.79
-0.825
-7.21
